- ASSAY METHOD TEXT: In vivo pharmacokinetic studies, oral and subcutaneous
- Design: species or system male Wistar rats
- ASSAY CONDITIONS: male, Wistar, rat, in vivo, sc
OBSERVATION TYPE: Cmax

C=C1CC[C@H](O)C/C1=C/C=C1\CCC[C@]2(C)[C@@H]([C@H](C)CCCC(C)C)CC[C@@H]12 = < 25 ng/mL

----------
- ASSAY METHOD TEXT: In vivo pharmacokinetic studies, oral and subcutaneous
- Set-up: species or system male Wistar rats
- ASSAY CONDITIONS: male, Wistar, rat, plasma, sc, 2.5 Lac I.U, plasma ATRA, single dose subcutaneous, 2.5 Lac I.U, rat; read-out: AUC (0-T)
- Procedure: In vivo pharmacokinetic studies were performed using male Wistar rats weighing 250-300 g. The protocol was duly approved by the Institutional Animal Ethics Committee (IAEC) of Panjab University, Chandigarh, India. The animals were divided into four groups (n=6). Group 1 was administered 2.5 Lacs International units (IU) subcutaneous retinoic acid and vitamin D3 SLNs simultaneously, Group 2 was also simultaneously administered 2.5 Lacs IU free retinoic acid and vitamin D3. […]
OBSERVATION TYPE: AUC(0-t) (ng·h/mL)

CC1=C(/C=C/C(C)=C/C=C/C(C)=C/C(=O)O)C(C)(C)CCC1 [ATRA-S, all-trans retinoic acid] = 2820

----------
- ASSAY METHOD TEXT: In vivo pharmacokinetic studies, oral and subcutaneous
- Parameters: species or system male Wistar rats
- ASSAY CONDITIONS: male, Wistar, rat, plasma, po, 1 Lac IU, plasma ATRA, oral administration, rat; read-out: AUC0-t
OBSERVATION TYPE: AUC(0-t) (ng·h/mL)

CC1=C(/C=C/C(C)=C/C=C/C(C)=C/C(=O)O)C(C)(C)CCC1 [ATRA-S, all-trans retinoic acid] = 356

----------
- ASSAY METHOD TEXT: In vivo pharmacokinetic studies, oral and subcutaneous
- Set-up: species or system male Wistar rats
- ASSAY CONDITIONS: male, Wistar; plasma ATRA, single dose oral, 1 Lac I.U, rat; read-out: Cmax
OBSERVATION TYPE: Cmax

CC1=C(/C=C/C(C)=C/C=C/C(C)=C/C(=O)O)C(C)(C)CCC1 [ATRA-S, all-trans retinoic acid] = 151 ng/mL

----------
- ASSAY METHOD TEXT: In vivo pharmacokinetic studies, oral and subcutaneous
- Set-up: species or system male Wistar rats
- ASSAY CONDITIONS: male, Wistar, rat, in vivo, po
OBSERVATION TYPE: Cmax

C=C1CC[C@H](O)C/C1=C/C=C1\CCC[C@]2(C)[C@@H]([C@H](C)CCCC(C)C)CC[C@@H]12 [Vitamin D3-S, cholecalciferol] = < 25 ng/mL

----------
- ASSAY METHOD TEXT: In vivo pharmacokinetic studies, oral and subcutaneous
- Set-up: species or system male Wistar rats
- ASSAY CONDITIONS: male, Wistar, sc; plasma ATRA, single dose subcutaneous, 2.5 Lac I.U, rat
OBSERVATION TYPE: half-life (min)

CC1=C(/C=C/C(C)=C/C=C/C(C)=C/C(=O)O)C(C)(C)CCC1 [ATRA-S, all-trans retinoic acid] = 57

----------
- ASSAY METHOD TEXT: In vivo pharmacokinetic studies, oral and subcutaneous
- Parameters: species or system male Wistar rats
- ASSAY CONDITIONS: male, Wistar, rat, plasma, po, 1 Lac IU, plasma ATRA, oral administration, rat; read-out: AUCt-∞
OBSERVATION TYPE: AUC(0-t)

CC1=C(/C=C/C(C)=C/C=C/C(C)=C/C(=O)O)C(C)(C)CCC1 [ATRA-S, all-trans retinoic acid] = 713 ng·h/mL

----------
- ASSAY METHOD TEXT: In vivo pharmacokinetic studies, oral and subcutaneous
- Parameters: species or system male Wistar rats
- ASSAY CONDITIONS: male, Wistar, sc, 2.5 Lacs IU; plasma ATRA, single dose subcutaneous, rat
OBSERVATION TYPE: AUC(0-inf) (ng·h/mL)

CC1=C(/C=C/C(C)=C/C=C/C(C)=C/C(=O)O)C(C)(C)CCC1 [ATRA-S, all-trans retinoic acid] = 2950

----------
- ASSAY METHOD TEXT: In vivo pharmacokinetic studies, oral and subcutaneous
- Set-up: species or system male Wistar rats
- ASSAY CONDITIONS: male, Wistar, rat, plasma, sc, 2.5 Lac I.U, plasma ATRA, single dose subcutaneous, 2.5 Lac I.U, rat; read-out: AUC (T-∞)
OBSERVATION TYPE: AUC(0-t) (ng·h/mL)

CC1=C(/C=C/C(C)=C/C=C/C(C)=C/C(=O)O)C(C)(C)CCC1 [ATRA-S, all-trans retinoic acid] = 2950

----------
- ASSAY METHOD TEXT: In vivo pharmacokinetic studies, oral and subcutaneous
- Parameters: species or system male Wistar rats
- ASSAY CONDITIONS: male, Wistar, rat, in vivo, po
OBSERVATION TYPE: Tmax

C=C1CC[C@H](O)C/C1=C/C=C1\CCC[C@]2(C)[C@@H]([C@H](C)CCCC(C)C)CC[C@@H]12 [Vitamin D3-S, cholecalciferol] = 0 h

----------
- ASSAY METHOD TEXT: In vivo pharmacokinetic studies, oral and subcutaneous
- Set-up: species or system male Wistar rats
- ASSAY CONDITIONS: male, Wistar, sc; plasma ATRA, single dose subcutaneous, 2.5 Lac I.U, rat; read-out: Tmax
- Description: In vivo pharmacokinetic studies were performed using male Wistar rats weighing 250-300 g. The protocol was duly approved by the Institutional Animal Ethics Committee (IAEC) of Panjab University, Chandigarh, India. The animals were divided into four groups (n=6). Group 1 was administered 2.5 Lacs International units (IU) subcutaneous retinoic acid and vitamin D3 SLNs simultaneously, Group 2 was also simultaneously administered 2.5 Lacs IU free retinoic acid and vitamin D3. […]
OBSERVATION TYPE: Tmax (min)

CC1=C(/C=C/C(C)=C/C=C/C(C)=C/C(=O)O)C(C)(C)CCC1 [ATRA-S, all-trans retinoic acid] = 30

----------
- ASSAY METHOD TEXT: In vivo pharmacokinetic studies, oral and subcutaneous
- Design: species or system male Wistar rats
- ASSAY CONDITIONS: male, Wistar, sc; plasma ATRA, single dose subcutaneous injection, 2.5 Lac I.U, rat; read-out: Cmax
- Experimental: In vivo pharmacokinetic studies were performed using male Wistar rats weighing 250-300 g. The protocol was duly approved by the Institutional Animal Ethics Committee (IAEC) of Panjab University, Chandigarh, India. The animals were divided into four groups (n=6). Group 1 was administered 2.5 Lacs International units (IU) subcutaneous retinoic acid and vitamin D3 SLNs simultaneously, Group 2 was also simultaneously administered 2.5 Lacs IU free retinoic acid and vitamin D3. […]
OBSERVATION TYPE: Cmax (ng/mL)

CC1=C(/C=C/C(C)=C/C=C/C(C)=C/C(=O)O)C(C)(C)CCC1 [ATRA-S, all-trans retinoic acid] = 1400
